MEASUREMENT_TARGET: human µ opioid receptor (human), P35372
Sequence (P35372 whole entry): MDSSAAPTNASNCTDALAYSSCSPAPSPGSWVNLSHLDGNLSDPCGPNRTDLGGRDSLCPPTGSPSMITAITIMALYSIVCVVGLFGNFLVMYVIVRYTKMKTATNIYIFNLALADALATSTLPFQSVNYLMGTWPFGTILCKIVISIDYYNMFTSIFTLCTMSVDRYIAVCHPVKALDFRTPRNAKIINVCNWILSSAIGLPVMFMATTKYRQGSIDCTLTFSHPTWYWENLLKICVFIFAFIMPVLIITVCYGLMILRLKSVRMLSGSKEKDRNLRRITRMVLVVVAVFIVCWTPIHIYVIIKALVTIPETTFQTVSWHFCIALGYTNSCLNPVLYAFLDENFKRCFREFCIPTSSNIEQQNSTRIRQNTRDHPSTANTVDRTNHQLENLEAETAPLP
METHOD_SUMMARY: radioligand competition with [3H]naloxone (5 nM), membranes of CHO-K1 cells with recombinant human µ opioid receptor; Ki by Cheng-Prusoff; sample pre-incubated 72 h at 37 C, pH 7.5 (partly released biphalin)
QUANTITY_MEASURED: Ki (nM)
// note: answer is a bare numeric in nM

-- ask Give its Ki value. Item: YAGF (modifications not checked) [Di-CAC-PEG2-FMOC-NHS-20K-biphalin]
-- reply 13.7
